- subject-of-test: human BACE1(1-460):Fc (Homo sapiens (Human))
- Sequence (P56817 22-460): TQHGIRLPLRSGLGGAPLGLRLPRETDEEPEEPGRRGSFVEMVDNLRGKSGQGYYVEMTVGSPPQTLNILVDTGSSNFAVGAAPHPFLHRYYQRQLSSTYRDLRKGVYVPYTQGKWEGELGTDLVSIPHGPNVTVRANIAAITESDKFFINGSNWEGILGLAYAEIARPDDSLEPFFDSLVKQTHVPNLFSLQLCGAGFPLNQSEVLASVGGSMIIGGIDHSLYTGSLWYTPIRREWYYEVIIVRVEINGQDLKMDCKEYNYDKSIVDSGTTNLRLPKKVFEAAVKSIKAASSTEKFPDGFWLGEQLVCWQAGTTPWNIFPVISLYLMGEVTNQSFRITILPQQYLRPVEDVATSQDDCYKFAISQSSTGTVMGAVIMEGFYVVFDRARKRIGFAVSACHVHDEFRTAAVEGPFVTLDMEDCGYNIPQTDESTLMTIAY
- assay: BACE1 FRET Assay
- particulars: purified recombinant huBACE1:Fc, FRET substrate, pH 4.6; Mean ± SEM
Counter-ions that a name gives are not always drawn.
Measured pIC50, listed per entry.
Please treat pIC50 as minus the base-10 logarithm of the molar concentration.

[[record]]
molecule = "COc1cnc(C(=O)Nc2cccc([C@]34CN(c5ncc(F)cn5)C[C@H]3CSC(N)=N4)c2)cn1 [Example 2, hydrochloride]"
observed_result = 9.32

[[record]]
molecule = "NC1=N[C@@]2(c3cccc(NC(=O)c4ncc(F)cc4F)c3)CN(c3ncc(F)cn3)C[C@H]2CS1 [Example 6, hydrochloride]"
observed_result = 9.13

[[record]]
molecule = "Cl.NC1=N[C@@]2(c3cccc(NC(=O)c4ccc(F)cn4)c3)CN(c3ncc(F)cn3)C[C@H]2CS1 [Example 1, hydrochloride]"
observed_result = 9.21

[[record]]
molecule = "N#Cc1ccc(C(=O)Nc2cccc([C@]34CN(c5ncc(F)cn5)C[C@H]3CSC(N)=N4)c2)nc1 [Example 5, hydrochloride]"
observed_result = 9.35


Now consider the entry below.
Input: Fill blank: measured pIC50 of the molecule N#Cc1ccc(C(=O)Nc2ccc(F)c([C@]34CN(c5ncc(F)cn5)C[C@H]3CSC(N)=N4)c2)nc1 [Example 7, hydrochloride] is ____.
Output: 9.45

====

Measured pIC50, listed per entry.
- Test system: primary cortical neurons from PDAPP transgenic embryonic mice
- assay: PDAPP Primary Neuronal Assay (Abeta ELISA)
- Assay type: cell-based
- particulars: Mus musculus, Primary cortical neuron, 24 h, Abeta 1-40, Mean ± SEM, read-out: PDAPP Neuron A-beta (1-40) ELISA IC50
Counter-ions that a name gives are not always drawn.
Please treat pIC50 as minus the base-10 logarithm of the molar concentration.

[[record]]
compound = "COc1cnc(C(=O)Nc2cccc([C@]34CN(c5ncc(F)cn5)C[C@H]3CSC(N)=N4)c2)cn1 [Example 2, hydrochloride]"
observed_result = 9.61

[[record]]
compound = "Cl.NC1=N[C@@]2(c3cccc(NC(=O)c4ccc(F)cn4)c3)CN(c3ncc(F)cn3)C[C@H]2CS1 [Example 1, hydrochloride]"
observed_result = 9.31


Input: Record lookup: for primary cortical neurons from PDAPP transgenic embryonic mice, what pIC50 belongs to NC1=N[C@@]2(c3cc(NC(=O)c4ncc(F)cc4F)ccc3F)CN(c3ncc(F)cn3)C[C@H]2CS1 [Example 8, hydrochloride] ?
Output: 9.55

Input: Record lookup: for primary cortical neurons from PDAPP transgenic embryonic mice, what pIC50 belongs to COc1cnc(C(=O)Nc2ccc(F)c([C@]34CN(c5ncc(F)cn5)C[C@H]3CSC(N)=N4)c2)cn1 [Example 4, hydrochloride] ?
Output: 9.87

Input: Record lookup: for primary cortical neurons from PDAPP transgenic embryonic mice, what pIC50 belongs to N#Cc1ccc(C(=O)Nc2cccc([C@]34CN(c5ncc(F)cn5)C[C@H]3CSC(N)=N4)c2)nc1 [Example 5, hydrochloride] ?
Output: 9.88

Input: Record lookup: for primary cortical neurons from PDAPP transgenic embryonic mice, what pIC50 belongs to Cl.NC1=N[C@@]2(c3cc(NC(=O)c4ccc(F)cn4)ccc3F)CN(c3ncc(F)cn3)C[C@H]2CS1 [Example 3, hydrochloride] ?
Output: 9.51

Input: Record lookup: for primary cortical neurons from PDAPP transgenic embryonic mice, what pIC50 belongs to N#Cc1ccc(C(=O)Nc2ccc(F)c([C@]34CN(c5ncc(F)cn5)C[C@H]3CSC(N)=N4)c2)nc1 [Example 7, hydrochloride] ?
Output: 10.06

Input: Record lookup: for primary cortical neurons from PDAPP transgenic embryonic mice, what pIC50 belongs to NC1=N[C@@]2(c3cccc(NC(=O)c4ncc(F)cc4F)c3)CN(c3ncc(F)cn3)C[C@H]2CS1 [Example 6, hydrochloride] ?
Output: 9.55
